Data origin, for the record: patent US6706702B2

# melting point annotations

compound	obs_value
Cl.O=[N+]([O-])c1ccc2c(c1)C1CNCC(C2)C1 (stereo not shown)	215 to 220 °C
COc1ccc2c(c1)CC1CNCC2C1.Cl (stereo not shown)	253.5 to 258 °C
Cl.c1cncc(-c2ccc3c(c2)CC2CNCC3C2)c1 (stereo not shown)	240 to 242 °C
Cl.Fc1ccc2c(c1)CC1CC2CN(Cc2ccccc2)C1 (stereo not shown)	202 to 203 °C
Cl.c1c2c(cc3c1OCO3)C1CNCC(C2)C1 (stereo not shown)	241 to 243 °C

# input Return reported melting point; argument: Cl.FC(F)Oc1ccc2c(c1)CC1CNCC2C1 (stereo not shown)
# output 230 to 234 °C

# input Return reported melting point; argument: COc1cccc2c1CC1CNCC2C1.Cl (stereo not shown)
# output 272 to 274 °C
